assayed target: T1, PHD of UHRF1 (residues 307–366) (human, UniProt Q96T88 307-366)
T1 chain: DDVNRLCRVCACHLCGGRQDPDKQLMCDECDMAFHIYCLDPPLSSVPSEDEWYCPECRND
measurement description: ITC; in presence of SRA (1:1)

>  <binder>
ARTKQTARKSTGGKAPR [H3 peptide (1–17)]

>  <unit string>
µM

>  <Kd>
2.04

$$$$
